targetOfAssay: JAK2 (Homo sapiens, UniProt O60674)
Construct: endogenous in cells
Sequence (O60674 whole entry): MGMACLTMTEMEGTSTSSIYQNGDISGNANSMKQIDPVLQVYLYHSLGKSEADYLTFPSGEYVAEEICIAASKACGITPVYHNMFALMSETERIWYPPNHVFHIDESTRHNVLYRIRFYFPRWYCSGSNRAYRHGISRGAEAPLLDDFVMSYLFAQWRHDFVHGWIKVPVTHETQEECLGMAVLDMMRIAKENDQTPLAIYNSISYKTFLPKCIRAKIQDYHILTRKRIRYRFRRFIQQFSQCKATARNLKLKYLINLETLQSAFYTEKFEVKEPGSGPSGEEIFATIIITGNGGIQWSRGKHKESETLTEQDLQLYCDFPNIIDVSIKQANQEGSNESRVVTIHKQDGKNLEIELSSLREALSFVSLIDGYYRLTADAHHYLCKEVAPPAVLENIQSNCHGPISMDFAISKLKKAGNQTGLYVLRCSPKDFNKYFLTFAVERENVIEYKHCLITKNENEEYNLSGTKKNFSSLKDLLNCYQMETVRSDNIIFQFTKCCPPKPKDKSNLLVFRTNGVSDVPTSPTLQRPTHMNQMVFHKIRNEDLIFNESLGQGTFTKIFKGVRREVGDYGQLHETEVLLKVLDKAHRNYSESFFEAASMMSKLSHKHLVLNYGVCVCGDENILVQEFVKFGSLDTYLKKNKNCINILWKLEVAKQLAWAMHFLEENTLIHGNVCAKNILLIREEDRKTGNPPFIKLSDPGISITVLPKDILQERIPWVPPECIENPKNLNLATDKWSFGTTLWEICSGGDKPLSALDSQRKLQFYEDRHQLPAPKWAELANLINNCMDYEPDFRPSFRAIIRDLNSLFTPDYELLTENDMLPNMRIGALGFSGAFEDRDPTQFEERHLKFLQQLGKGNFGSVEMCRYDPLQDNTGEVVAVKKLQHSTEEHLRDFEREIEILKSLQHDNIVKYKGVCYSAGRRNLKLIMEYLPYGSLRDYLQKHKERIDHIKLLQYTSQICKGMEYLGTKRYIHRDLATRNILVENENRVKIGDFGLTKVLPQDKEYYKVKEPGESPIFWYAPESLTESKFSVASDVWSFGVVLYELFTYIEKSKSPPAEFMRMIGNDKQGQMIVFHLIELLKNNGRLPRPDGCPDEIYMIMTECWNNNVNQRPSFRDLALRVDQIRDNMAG
experimentDescription: Kinobeads assay, JAK2
details: mixed Molt4/Ramos cell lysate, dot blot detection
pIC50: −log10 of the molar value.
readoutName: pIC50

Cn1cc(Nc2ncc3cnn(-c4ccc(C(N)=O)cc4)c3n2)cn1 [Example 135] = 5.00 to 6.00
CCN(CC)CCn1cc(Nc2ncc3cnn(Cc4ccccc4F)c3n2)cn1 [Example 123] = 6.00 to 7.00
Cc1nn(CC(F)F)cc1Nc1ncc2cnn(Cc3ccccc3)c2n1 [Example 120] = ≤ 5.00
CNC(=O)c1cc(Nc2ncc3cnn(Cc4ccccc4F)c3n2)cn1C [Example 242] = 6.00 to 7.00
Cn1cc(Nc2ncc3cnn(Cc4cc(F)ccc4C#N)c3n2)cn1 [Example 52] = > 7.00
OCCn1cc(Nc2ncc3cnn(Cc4c(F)cccc4C(F)(F)F)c3n2)cn1 [Example 261] = 5.00 to 6.00
Cn1cc(Nc2ncc3cnn(Cc4ccccc4Oc4ccccc4)c3n2)cn1 [Example 224] = ≤ 5.00
Cn1cc(Nc2ncc3cnn(Cc4c(F)cccc4C(F)(F)F)c3n2)cn1 [Example 164] = 5.00 to 6.00
CC(C)S(=O)(=O)Nc1ccccc1Cn1ncc2cnc(Nc3cnn(C)c3)nc21 [Example 126] = 5.00 to 6.00
Cn1cc(Nc2ncc3cnn(Cc4cccc(OCCN5CCCC5=O)c4)c3n2)cn1 [Example 225] = ≤ 5.00
Cn1cc(Nc2ncc3cnn(Cc4ccccc4Cl)c3n2)cn1 [Example 27] = 5.00 to 6.00
COc1nn(CC(F)F)cc1Nc1ncc2cnn(Cc3ccccc3C(N)=O)c2n1 [Example 36] = ≤ 5.00
CNC(=O)Cn1cc(Nc2ncc3cnn(Cc4ccccc4)c3n2)cn1 [Example 133] = 5.00 to 6.00
CNC(=O)c1ccc(-n2ncc3cnc(Nc4cnn(C)c4)nc32)cc1 [Example 136] = 5.00 to 6.00
C[C@@H]1CN(c2cccc(Cn3ncc4cnc(Nc5cnn(C)c5)nc43)c2)C[C@H](C)O1 [Example 175] = ≤ 5.00
Cn1cc(Nc2ncc3cnn(-c4cccc(C(=O)NCCO)c4)c3n2)cn1 [Example 147] = ≤ 5.00
Cn1cc(Nc2ncc3cnn(Cc4ccccc4F)c3n2)cc1C(=O)N1CCOCC1 [Example 244] = > 7.00
FC(F)Cn1cc(Nc2ncc3cnn(Cc4ccccc4C4CC4)c3n2)cn1 [Example 161] = 5.00 to 6.00

src = patent US9242987B2
